Where these numbers come from: PubChem BioAssay

Assignment: determine reported EGFP/DsRed ratio for the given compounds.
biological target: Cellular tumor antigen p53 (Homo sapiens); assay: kinase inhibitors altering GFP-p53 stability in HPV16-positive cells, imaging, known kinase inhibitor set, EGFP/DsRed ratio (AID 1053116); settings: active compounds read high;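 note: test concentration not given here; cells exposed to compounds for 24 h at 37 °C before reading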
Numbers only.

compound="CNC(C#Cc1c(F)ccc2c1C(=Cc1[nH]ccc1OC)C(=O)N2)CO (stereo unspecified)" metric_name="EGFP/DsRed ratio" result_number=0.055
compound=FC(F)(F)CNc1nccc(-c2cnn3ncccc23)n1 metric_name="EGFP/DsRed ratio" result_number=0.0558
compound=Fc1cccc(COc2ccc(Nc3ncnc4cc(-c5ccc[nH]5)sc34)cc2Cl)c1 metric_name="EGFP/DsRed ratio" result_number=0.034
compound="COc1ccc(O)c(C(=O)c2ccc(C(=O)NC3CCCNCC3NC(=O)c3ccncc3)cc2)c1F (stereo unspecified)" metric_name="EGFP/DsRed ratio" result_number=0.105
compound=Cn1cc(C2=C(c3cccc(Cl)c3)C(=O)NC2=O)c2ccccc21 metric_name="EGFP/DsRed ratio" result_number=0.137
compound=CCc1c(C)nc2sc3c(N)ncnc3c2c1C metric_name="EGFP/DsRed ratio" result_number=0.129
compound=Fc1ccc(-c2c(-c3ccncc3)nc3n2CCS3)cc1 metric_name="EGFP/DsRed ratio" result_number=0.0335
compound=CCn1c(-c2nonc2N)nc2ccc(F)cc21 metric_name="EGFP/DsRed ratio" result_number=0.0296
compound=CNC(=O)c1sc(-n2cnc3cc(OC)c(OC)cc32)cc1OCc1ccccc1C(F)(F)F metric_name="EGFP/DsRed ratio" result_number=0.105
compound=N#Cc1c(NC(=O)c2ccc(F)cc2)sc2c1CCCC2 metric_name="EGFP/DsRed ratio" result_number=0.0854

Working through the 5 compounds below one at a time, give EGFP/DsRed ratio for each.
1. CNCCCn1cc(C2=C(c3cn(C)c4ccccc34)C(=O)NC2=O)c2ccccc21
2. CN(C)c1ccc2[nH]c(O)c(C=Nc3ccc(S(N)(=O)=O)cc3)c2c1
3. CN(C)C(=O)O[C@@H]1CN[C@@H](C#Cc2cc3ncnc(Nc4ccc(OCc5cccc(F)c5)c(Cl)c4)c3s2)C1
4. Cn1c(=O)c(Oc2ccc(F)cc2F)cc2cnc(NC3CCOC3)nc21 (stereo unspecified)
5. Cn1cc(/C=C2\C(=O)Nc3cccnc32)c2ccccc21

1: 0.00316; 2: 0.209; 3: 0.0417; 4: 0.257; 5: 0.0768

List reported EGFP/DsRed ratio for each of these compounds:
1. CN(c1ccc(NC(=O)NCCN2CCOCC2)cc1)c1ccnc(Nc2ccc(CS(C)(=O)=O)cc2)n1
2. CC(O)CNc1cc(-c2[nH]c3cccnc3c2-c2ccc(F)cc2)ccn1 (stereo unspecified)
3. O=[N+]([O-])c1ccc2c(c1)C(c1ccccc1Cl)=Nc1cn[nH]c1N2
4. COc1cccc(C2=C(c3cn(C)c4ccccc34)C(=O)NC2=O)c1
5. COc1cc(C)c(N(C)C(=O)CN(C)C)cc1Nc1nc(Nc2cccc(F)c2C(N)=O)c2cc[nH]c2n1
6. CNC(=O)c1cncc(/C=C/c2ccccc2C)c1

0.184
0.042
0.495
0.204
0.2
0.0734
